Consider the following variants; for each one, report its protein stability index.
B1: DVL3 (parent)
chain: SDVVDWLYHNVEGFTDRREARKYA

- Variants of: B1
- METHOD_DESCRIPTION: protein stability index of a GFP-peptide fusion (GPS, HEK-293T) (PSI 1-6); higher = more stable;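 further: lentivirally expressed fusions sorted by FACS into six bins by GFP to DsRed ratio, PSI derived from sequencing read proportions per bin multiplied by bin number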
- MEASUREMENT_PARAMETERS: c terminus: a fixed tail appended
Numbers only.

Worked examples follow.
SDVVDWLYHNVEKFTDRREARKYA [G13K] = 2.95
SDVVDGLYHNVEGFTDRREARKYA [W6G] = 4.32
SDVVEWLYHNVEGFTDRREARKYA [D5E] = 3.6
SDVVDWLYHNVEGFTDRRELRKYA [A20L] = 2.34
SDVVDWLYHNVEGFTDHREARKYA [R17H] = 4.21

Need protein stability index for each of these variants.
1. SDVVDMLYHNVEGFTDRREARKYA [W6M]
2. SDVVDWLYHNVEGFTARREARKYA [D16A]
3. SDVVDWLYHVVEGFTDRREARKYA [N10V]
4. SDVVDWLYHNQEGFTDRREARKYA [V11Q]
5. SDVVDWLYHNVEGFPDRREARKYA [T15P]
6. SDVVDWLYHNVEGFTDRREARTYA [K22T]
7. SDVVDLLYHNVEGFTDRREARKYA [W6L]
8. SDVVDWYYHNVEGFTDRREARKYA [L7Y]

-- reply
1: 3.82; 2: 2.45; 3: 2.58; 4: 3.36; 5: 2.92; 6: 2.95; 7: 4.35; 8: 3.28
